Assay: Plasma pharmacokinetics after oral administration in mice
Conditions: male, ICR, mouse, plasma, po, 6 mg/kg
The entries below come with measured Tmax values attached.

COMPOUND	MEASUREMENT UNITS	Tmax
COc1ccc2c3c(c4cc(OC)c(OC)cc4c2c1)CN1CCC[C@H]1C3.O=C(O)C(O)C(O)C(=O)O [Tartrate, (+)-13a-(S)-deoxytylophorinine Tartrate]	min	15
COc1ccc2c3c(c4cc(OC)c(OC)cc4c2c1)CN1CCC[C@H]1C3.O=C(O)CC(O)(CC(=O)O)C(=O)O [Citrate, (+)-13a-(S)-deoxytylophorinine Citrate]	min	15
COc1ccc2c3c(c4cc(OC)c(OC)cc4c2c1)CN1CCC[C@H]1C3 [(+)-13a-(S)-deoxytylophorinine, reference compound]	min	15
COc1ccc2c3c(c4cc(OC)c(OC)cc4c2c1)CN1CCC[C@H]1C3.O=C(O)/C=C\C(=O)O [Maleate, (+)-13a-(S)-deoxytylophorinine Maleate]	min	4.8

* * *

Test system: H22 tumor-bearing mice
Conditions: low dose × 7 d, intragastric once daily, equal moles: prototype 2.5, tartrate 3.53, maleate 3.30, citrate 3.95 mg/kg
The entries below come with measured Animal No. (Initial/Final) values attached.
MEASURED ENDPOINT: Animal No. (Initial/Final)

COMPOUND	ASSAYED TARGET	VAL
COc1ccc2c3c(c4cc(OC)c(OC)cc4c2c1)CN1CCC[C@H]1C3 [(+)-13a-(S)-deoxytylophorinine, reference compound]	H22 tumor-bearing mice	6/6
COc1ccc2c3c(c4cc(OC)c(OC)cc4c2c1)CN1CCC[C@H]1C3.O=C(O)C(O)C(O)C(=O)O [Tartrate, (+)-13a-(S)-deoxytylophorinine Tartrate]	H22 tumor-bearing mice	6/6
COc1ccc2c3c(c4cc(OC)c(OC)cc4c2c1)CN1CCC[C@H]1C3.O=C(O)/C=C\C(=O)O [Maleate, (+)-13a-(S)-deoxytylophorinine Maleate]	H22 tumor-bearing mice	6/6
COc1ccc2c3c(c4cc(OC)c(OC)cc4c2c1)CN1CCC[C@H]1C3.O=C(O)CC(O)(CC(=O)O)C(=O)O [Citrate, (+)-13a-(S)-deoxytylophorinine Citrate]	H22 tumor-bearing mice	6/6

* * *

Tested on: H22 tumor-bearing mice
Conditions: high dose × 7 d, intragastric once daily, equal moles: prototype 5.0, tartrate 7.05, maleate 6.60, citrate 7.90 mg/kg
MEASURED ENDPOINT: Animal No. (Initial/Final)

COMPOUND	MEASURED ENDPOINT	VAL
COc1ccc2c3c(c4cc(OC)c(OC)cc4c2c1)CN1CCC[C@H]1C3.O=C(O)CC(O)(CC(=O)O)C(=O)O [Citrate, (+)-13a-(S)-deoxytylophorinine Citrate]	Animal No. (Initial/Final)	6/5
COc1ccc2c3c(c4cc(OC)c(OC)cc4c2c1)CN1CCC[C@H]1C3.O=C(O)C(O)C(O)C(=O)O [Tartrate, (+)-13a-(S)-deoxytylophorinine Tartrate]	Animal No. (Initial/Final)	6/6
COc1ccc2c3c(c4cc(OC)c(OC)cc4c2c1)CN1CCC[C@H]1C3.O=C(O)/C=C\C(=O)O [Maleate, (+)-13a-(S)-deoxytylophorinine Maleate]	Animal No. (Initial/Final)	6/4
COc1ccc2c3c(c4cc(OC)c(OC)cc4c2c1)CN1CCC[C@H]1C3 [(+)-13a-(S)-deoxytylophorinine, reference compound]	Animal No. (Initial/Final)	6/4

* * *

Test: Plasma pharmacokinetics after oral administration in mice
Conditions: male, ICR, mouse, plasma, oral, 6 mg/kg, Blood concentration of (+)-13a-(S)-deoxytylophorinine (ng/ml), Mean ± SD, 6 mg/kg oral, mice; Time (min) 1

COMPOUND	concentration at 1 h / ng/mL
COc1ccc2c3c(c4cc(OC)c(OC)cc4c2c1)CN1CCC[C@H]1C3.O=C(O)C(O)C(O)C(=O)O [Tartrate, (+)-13a-(S)-deoxytylophorinine Tartrate]	8.1

* * *

Experiment: Plasma pharmacokinetics after oral administration in mice
Settings: male, ICR, mouse, plasma, oral, 6 mg/kg, Blood concentration of (+)-13a-(S)-deoxytylophorinine (ng/ml), Mean ± SD, 6 mg/kg oral, mice; Time (min) 0.25

COMPOUND	MEASUREMENT UNITS	concentration at 15 min
COc1ccc2c3c(c4cc(OC)c(OC)cc4c2c1)CN1CCC[C@H]1C3.O=C(O)C(O)C(O)C(=O)O [Tartrate, (+)-13a-(S)-deoxytylophorinine Tartrate]	ng/mL	34.2

* * *

Assay: Plasma pharmacokinetics after oral administration in mice
Details: 6 mg/kg oral, mice, plasma, non-compartment model
The entries below come with measured t½z values attached.
MEASURED ENDPOINT: t½z (min)

COMPOUND	MEASURED ENDPOINT	VAL
COc1ccc2c3c(c4cc(OC)c(OC)cc4c2c1)CN1CCC[C@H]1C3 [(+)-13a-(S)-deoxytylophorinine, reference compound]	t½z	26.4
COc1ccc2c3c(c4cc(OC)c(OC)cc4c2c1)CN1CCC[C@H]1C3.O=C(O)C(O)C(O)C(=O)O [Tartrate, (+)-13a-(S)-deoxytylophorinine Tartrate]	t½z	52.8
COc1ccc2c3c(c4cc(OC)c(OC)cc4c2c1)CN1CCC[C@H]1C3.O=C(O)/C=C\C(=O)O [Maleate, (+)-13a-(S)-deoxytylophorinine Maleate]	t½z	103
COc1ccc2c3c(c4cc(OC)c(OC)cc4c2c1)CN1CCC[C@H]1C3.O=C(O)CC(O)(CC(=O)O)C(=O)O [Citrate, (+)-13a-(S)-deoxytylophorinine Citrate]	t½z	51.6

* * *

The entries below come with measured Tumor Weight (g, mean ± SD) values attached.
Tested on: H22 tumor-bearing mice
Details: low dose × 7 d, intragastric once daily, equal moles: prototype 2.5, tartrate 3.53, maleate 3.30, citrate 3.95 mg/kg
MEASURED ENDPOINT: Tumor Weight (g, mean ± SD) (g)

COMPOUND	MEASURED ENDPOINT	VAL
COc1ccc2c3c(c4cc(OC)c(OC)cc4c2c1)CN1CCC[C@H]1C3 [(+)-13a-(S)-deoxytylophorinine, reference compound]	Tumor Weight (g, mean ± SD)	0.66
COc1ccc2c3c(c4cc(OC)c(OC)cc4c2c1)CN1CCC[C@H]1C3.O=C(O)/C=C\C(=O)O [Maleate, (+)-13a-(S)-deoxytylophorinine Maleate]	Tumor Weight (g, mean ± SD)	0.62
COc1ccc2c3c(c4cc(OC)c(OC)cc4c2c1)CN1CCC[C@H]1C3.O=C(O)CC(O)(CC(=O)O)C(=O)O [Citrate, (+)-13a-(S)-deoxytylophorinine Citrate]	Tumor Weight (g, mean ± SD)	0.61
COc1ccc2c3c(c4cc(OC)c(OC)cc4c2c1)CN1CCC[C@H]1C3.O=C(O)C(O)C(O)C(=O)O [Tartrate, (+)-13a-(S)-deoxytylophorinine Tartrate]	Tumor Weight (g, mean ± SD)	0.78

* * *

Experiment: Plasma pharmacokinetics after oral administration in mice
Settings: male, ICR, mouse, plasma, oral, 6 mg/kg, Blood concentration of (+)-13a-(S)-deoxytylophorinine (ng/ml), Mean ± SD, 6 mg/kg oral, mice; Time (min) 0.08
Method: To determine the pharmacokinetic characters of 13a-(S)-deoxytylophorinine and its salts, the studies about plasma pharmacokinetics and the character of distribution in brain were pursued. Male ICR mice. Body weight 18˜22 g. (+)-13a-(S)-deoxytylophorinine Tartrate, (+)-13a-(S)-deoxytylophorinine Maleate, (+)-13a-(S)-deoxytylophorinine Citrate. […] 72 mice were divided to 3 groups with 24 animals per group, fasting for 16 h and drinking water freely. […] 5 μL of clear supernatant was analyzed by LC/MS/MS. […]

COMPOUND	MEASUREMENT UNITS	concentration at 5 min
COc1ccc2c3c(c4cc(OC)c(OC)cc4c2c1)CN1CCC[C@H]1C3.O=C(O)C(O)C(O)C(=O)O [Tartrate, (+)-13a-(S)-deoxytylophorinine Tartrate]	ng/mL	24

* * *

Test system: Bel7402 human liver cancer cell
Test: Cytotoxic activity assay (MTT), Bel7402
Format: cell-based
Conditions: Bel-7402, 120 h, 5 days
Protocol: To evaluate the in vitro antitumor activity of (+)-13a-(S)-Deoxytylophorinine salts in this invention, Cytotoxic activity assay (MTT) experiment was persued. 1. Tumor cells at log phase were incubated on 96-well plates at a density of 1˜1.0×10^4 cells/ml, 100 μl/well. […] 4. The incubation medium was removed, then 150 μl DMSO was added to each well, the absorbance at a reference wavelength of 450 nm and a test wavelength of 570 nm was read. Drug inhibitory rate was calculated.

COMPOUND	IC50 (nM)
CC(O)C(=O)O.COc1ccc2c3c(c4cc(OC)c(OC)cc4c2c1)CN1CCC[C@H]1C3 [Lactate, (+)-13a-(S)-deoxytylophorinine Lactate]	40

* * *

Assay: Plasma pharmacokinetics after oral administration in mice
Details: male, ICR, mouse, plasma, oral, 6 mg/kg, Blood concentration of (+)-13a-(S)-deoxytylophorinine (ng/ml), Mean ± SD, 6 mg/kg oral, mice; Time (min) 0.5
Method: To determine the pharmacokinetic characters of 13a-(S)-deoxytylophorinine and its salts, the studies about plasma pharmacokinetics and the character of distribution in brain were pursued. Male ICR mice. Body weight 18˜22 g. (+)-13a-(S)-deoxytylophorinine Tartrate, (+)-13a-(S)-deoxytylophorinine Maleate, (+)-13a-(S)-deoxytylophorinine Citrate. […] 72 mice were divided to 3 groups with 24 animals per group, fasting for 16 h and drinking water freely. […] 5 μL of clear supernatant was analyzed by LC/MS/MS. […]

COMPOUND	MEASUREMENT UNITS	concentration at 0.5 h
COc1ccc2c3c(c4cc(OC)c(OC)cc4c2c1)CN1CCC[C@H]1C3.O=C(O)C(O)C(O)C(=O)O [Tartrate, (+)-13a-(S)-deoxytylophorinine Tartrate]	ng/mL	11.1
